TEST_SYSTEM: Serine/threonine-protein kinase TBK1 (Homo sapiens)
ASSAY_COMMENT: Inhibition of human TBK1 (1 to 729 residues) assessed as enzyme activity at 1 uM using 33P ATP by radioactive filter binding assay
Design: scale not given: the % may be the effect or the level left
MEASURED_ENDPOINT: Activity (%)

CCc1cc(-c2c[nH]c3ncc(-c4cnn(C5CCNCC5)c4)cc23)nc(N)n1	-65

a. Nc1nccc(-c2c[nH]c3ncccc23)n1
b. CCCCc1cc(-c2c[nH]c3ncccc23)nc(N)n1
c. CCCCc1cc(-c2c[nH]c3ncc(-c4cnn(C5CCNCC5)c4)cc23)nc(N)n1
Order the entries by their reported Activity, beginning at the minimum. Please write the labels in the order that was asked for.
c, b, a
(c: -93%, b: -37%, a: -17%)
